Molecular target: T1, Hse1, P38753
T1 sequence (P38753 208-285, looked up): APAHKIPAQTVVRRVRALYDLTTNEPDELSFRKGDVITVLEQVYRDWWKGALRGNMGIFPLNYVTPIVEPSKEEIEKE
Assay: SPOT array
Settings: median of control spots 1727
measurement.name: SPOT intensity

# lookup: SPOT intensity of KMSRSPPRPPSLKII 14

# lookup: SPOT intensity of IRMPSNPALPKKLLN 16

# lookup: SPOT intensity of TEVPIPRRPPPPQAA 0

# lookup: SPOT intensity of RKRAPTPPAPSRSEK 3

# lookup: SPOT intensity of LKVTPGRRAPTISKI 0

# lookup: SPOT intensity of LRWRHKFFLPAIAAI 21

# lookup: SPOT intensity of VATSTSPKLPPRGKQ 0

# lookup: SPOT intensity of DAPASKPSVPPRNYF 0

# lookup: SPOT intensity of SSTPTTPERPKRKSG 0

# lookup: SPOT intensity of QPWTDQFEKLEKEVS 0

# lookup: SPOT intensity of NRLRKRLNLPSEISI 99

# lookup: SPOT intensity of PHNPSPFFPPPDFND 0

# lookup: SPOT intensity of QPQRTAPKPPISAPR 0

# lookup: SPOT intensity of KNRKNLPTIPIRLSG 2

# lookup: SPOT intensity of QQNRPLPQLPNRNNR 23

# lookup: SPOT intensity of YLTRPLPSTPNEDSR 6
